TEST_SYSTEM: Chromo domain-containing protein 1 (Saccharomyces cerevisiae (strain ATCC 204508 / S288c) (Baker's yeast)) (UniProt P32657)
Sequence (P32657 whole entry, the tested form may be a part): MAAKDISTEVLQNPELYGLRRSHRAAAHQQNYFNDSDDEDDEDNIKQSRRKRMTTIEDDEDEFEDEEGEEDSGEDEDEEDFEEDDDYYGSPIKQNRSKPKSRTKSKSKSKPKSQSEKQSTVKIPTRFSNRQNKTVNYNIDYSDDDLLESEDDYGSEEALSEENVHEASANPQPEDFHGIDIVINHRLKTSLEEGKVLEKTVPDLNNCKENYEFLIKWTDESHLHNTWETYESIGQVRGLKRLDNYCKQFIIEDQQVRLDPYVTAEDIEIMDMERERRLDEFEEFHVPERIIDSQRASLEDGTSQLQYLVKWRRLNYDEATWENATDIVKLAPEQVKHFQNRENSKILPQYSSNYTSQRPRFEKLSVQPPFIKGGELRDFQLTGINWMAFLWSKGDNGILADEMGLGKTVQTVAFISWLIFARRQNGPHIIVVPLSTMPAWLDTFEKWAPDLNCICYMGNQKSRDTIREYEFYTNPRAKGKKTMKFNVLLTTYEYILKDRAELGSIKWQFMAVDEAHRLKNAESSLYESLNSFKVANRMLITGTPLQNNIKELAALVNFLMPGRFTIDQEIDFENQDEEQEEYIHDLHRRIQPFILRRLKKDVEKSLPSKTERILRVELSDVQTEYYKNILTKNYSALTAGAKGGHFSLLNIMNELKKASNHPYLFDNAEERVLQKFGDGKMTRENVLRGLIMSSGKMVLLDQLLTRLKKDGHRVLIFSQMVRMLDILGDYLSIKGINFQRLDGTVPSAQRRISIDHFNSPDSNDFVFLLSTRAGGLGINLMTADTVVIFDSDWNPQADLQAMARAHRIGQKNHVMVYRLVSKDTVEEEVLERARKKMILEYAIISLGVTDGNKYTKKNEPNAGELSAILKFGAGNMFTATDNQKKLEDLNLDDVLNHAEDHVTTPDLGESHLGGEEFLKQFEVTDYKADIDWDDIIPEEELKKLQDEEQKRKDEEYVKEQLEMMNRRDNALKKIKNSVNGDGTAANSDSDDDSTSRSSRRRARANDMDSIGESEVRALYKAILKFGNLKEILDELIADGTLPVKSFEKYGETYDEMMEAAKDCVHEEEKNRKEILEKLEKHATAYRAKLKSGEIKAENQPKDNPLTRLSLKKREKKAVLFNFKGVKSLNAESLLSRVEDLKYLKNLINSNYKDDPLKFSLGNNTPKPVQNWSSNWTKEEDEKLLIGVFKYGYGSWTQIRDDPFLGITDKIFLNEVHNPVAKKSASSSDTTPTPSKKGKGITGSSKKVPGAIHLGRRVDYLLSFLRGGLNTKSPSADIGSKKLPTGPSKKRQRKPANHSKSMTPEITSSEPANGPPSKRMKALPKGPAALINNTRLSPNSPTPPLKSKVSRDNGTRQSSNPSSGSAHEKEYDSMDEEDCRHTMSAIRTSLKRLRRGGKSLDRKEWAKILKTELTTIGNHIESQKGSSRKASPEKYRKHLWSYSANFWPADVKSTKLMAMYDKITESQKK
ASSAY_PROTOCOL: ScCHD-1 Enzyme Inhibition Assay
Type: functional
Design: scale not given: in the data most compounds retested in dose-response had high values
RUN_CONDITIONS: 30 µM
QUANTITY_MEASURED: Percent Effect (%)
# number only, unit % dropped from output

Solved entries:
>  <COMPOUND>
OC(CN1CCOCC1)c1ccc(OC(F)(F)F)cc1 (centres undefined)

>  <QUANTITY_MEASURED>
Percent Effect

>  <NUMERIC_VALUE>
-7.59

$$$$
>  <COMPOUND>
COc1cccc(S(=O)(=O)NC(=O)COC2CCCC2)c1

>  <QUANTITY_MEASURED>
Percent Effect

>  <NUMERIC_VALUE>
-6.86

$$$$
>  <COMPOUND>
CCS(=O)(=O)CC(=O)NC(c1ccccc1)C1CCCCC1 (centres undefined)

>  <QUANTITY_MEASURED>
Percent Effect

>  <NUMERIC_VALUE>
-3.43

$$$$

Query :: # lookup: Percent Effect of `CN(C)C(=O)NC[C@H]1OC[C@@H]2CCN(Cc3ccoc3)C[C@@H]21`
Result :: -4.56

* * *

TEST_SYSTEM: Chromo domain-containing protein 1 (Saccharomyces cerevisiae (strain ATCC 204508 / S288c) (Baker's yeast)) (UniProt P32657)
ASSAY_PROTOCOL: ScCHD-1 Enzyme Inhibition Assay
Format: functional
Set-up: scale not given: in the data most compounds retested in dose-response had high values
RUN_CONDITIONS: 30 µM
QUANTITY_MEASURED: Percent Effect (%)
# number only, unit % dropped from output

Solved entries:
>  <MOLECULE>
Cc1noc(C2CCC3(CCN(C(=O)C4=CCCCC4)CC3)O2)n1 (stereo unspecified)

>  <Percent Effect (%)>
-7.09

$$$$
>  <MOLECULE>
CC(=O)c1c(F)cccc1N1CCC(Cc2cccnc2)CC1

>  <Percent Effect (%)>
-9.38

$$$$
>  <MOLECULE>
Cc1nn(C)c(C)c1C1COCCN1C(=O)c1n[nH]c2ccccc12 (stereo unspecified)

>  <Percent Effect (%)>
-7.82

$$$$

Query :: # lookup: Percent Effect of `Cc1ccc(-n2nnc(C(=O)Nc3cc(C)nn3C)c2C2CC2)cc1`
Result :: 1

Query :: # lookup: Percent Effect of `CS(=O)(=O)NC[C@]12COC[C@H]1CN(C(=O)c1ccccc1)C2`
Result :: -6.34

Query :: # lookup: Percent Effect of `Cn1cnc(S(=O)(=O)NCCN2CCCCCC2=O)c1Cl`
Result :: -8.21

Query :: # lookup: Percent Effect of `Cc1cc(-c2cnc(NC3CC3)nc2-c2ccc(C)o2)on1`
Result :: -7.02

Query :: # lookup: Percent Effect of `CN(Cc1nccs1)c1nc(-c2ccccn2)nc2c1CCNCC2`
Result :: -1.22

Query :: # lookup: Percent Effect of `CCO[C@@H]1CCN(C(=O)c2ccc[nH]2)[C@@H]1Cc1cnn(C)c1`
Result :: -2.5

Query :: # lookup: Percent Effect of Cn1cc(CCNC(=O)NC2CCS(=O)(=O)C2)cn1 (stereo unspecified)
Result :: -1.44

Query :: # lookup: Percent Effect of `Cc1ccc(S(=O)(=O)NC(=O)c2c(C)noc2C(C)C)cc1C`
Result :: -1.79

* * *

TEST_SYSTEM: Arginase-2, mitochondrial (Homo sapiens) (UniProt P78540)
Sequence (P78540 whole entry): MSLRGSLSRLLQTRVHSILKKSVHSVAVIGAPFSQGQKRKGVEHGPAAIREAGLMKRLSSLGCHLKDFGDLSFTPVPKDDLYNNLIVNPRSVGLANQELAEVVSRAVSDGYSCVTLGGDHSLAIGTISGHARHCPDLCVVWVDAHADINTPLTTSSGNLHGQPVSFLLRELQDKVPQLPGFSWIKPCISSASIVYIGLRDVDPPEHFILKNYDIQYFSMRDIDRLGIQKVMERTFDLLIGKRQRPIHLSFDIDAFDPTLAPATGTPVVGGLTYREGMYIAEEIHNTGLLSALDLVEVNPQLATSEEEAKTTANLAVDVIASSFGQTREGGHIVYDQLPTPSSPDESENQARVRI
ASSAY_PROTOCOL: in vitro enzyme assay to detect the production of urea directly proportional to the activity of Arginase II
Format: functional
Design: scale not given: in the data most compounds retested in dose-response had high values
RUN_CONDITIONS: 33.3 µM
QUANTITY_MEASURED: Percent Effect (%)
# number only, unit % dropped from output

>  <MOLECULE>
Cc1ccc(C(=O)N2CCN(Cc3nc(C(C)C)no3)CC2)c(=O)[nH]1

>  <UNIT>
%

>  <NUMERIC_VALUE>
-2.77

$$$$
>  <MOLECULE>
COCCN1CCN(CCCS(C)(=O)=O)CC1C (centres undefined)

>  <UNIT>
%

>  <NUMERIC_VALUE>
0.924

$$$$

Query :: # lookup: Percent Effect of `COc1ccc2c(c1)CCN(CCC(=O)NC1CCCCC1)CC2`
Result :: -1.43

Query :: # lookup: Percent Effect of `CS(=O)(=O)NC[C@]12COC[C@H]1CN(C(=O)Cc1ccccc1F)C2`
Result :: -4.52

Query :: # lookup: Percent Effect of `CCCN1CCC(NC(=O)c2ccc(F)cc2I)CC1`
Result :: 24.3

Query :: # lookup: Percent Effect of `CCSCCC(=O)Nc1ncn(Cc2cccnc2)n1`
Result :: 3.65

Query :: # lookup: Percent Effect of `COCCN1CC[C@H](O)[C@@H]1Cc1ccccc1`
Result :: 6.87

Query :: # lookup: Percent Effect of `CC(C)(C)c1cnc(CN2CCC(c3ccnn3CCO)CC2)o1`
Result :: -3.42

Query :: # lookup: Percent Effect of Cc1cc(C)cc(OCCC(=O)N2CCCC(n3cncn3)C2)c1 (centres undefined)
Result :: -5.73

Query :: # lookup: Percent Effect of `Cn1cnc2c(N3CCCC3)nc(C3CCNCC3)cc21`
Result :: -48.6

Query :: # lookup: Percent Effect of CCc1nsc(NC2CCCn3nc(COC)nc32)n1 (centres undefined)
Result :: 16.7

Query :: # lookup: Percent Effect of `COCc1ccc(CNC(=O)C2=NN(c3ccccc3)C(=O)CN2)cc1`
Result :: 1.24

Query :: # lookup: Percent Effect of `COc1ccccc1CC(=O)N1CCC(NCc2c[nH]nc2C)CC1`
Result :: 0.924

Query :: # lookup: Percent Effect of `Cc1csc(NC(=O)CN2CCC(c3ccnn3CCO)CC2)n1`
Result :: 0

Query :: # lookup: Percent Effect of `Cc1cn(-c2ccccc2)nc1NS(=O)(=O)c1cc(C(=O)O)cs1`
Result :: -0.455

Query :: # lookup: Percent Effect of `Cc1oc(C(=O)O)cc1S(=O)(=O)Nc1c(F)cccc1-n1cccn1`
Result :: 0

Query :: # lookup: Percent Effect of COc1ccc(NC(=O)NC(C)c2nc[nH]n2)cc1 (centres undefined)
Result :: 19.6

Query :: # lookup: Percent Effect of Cc1cn2c(n1)CCC(NC(=O)c1ccc(CS(C)(=O)=O)cc1)C2 (centres undefined)
Result :: -3.06

Query :: # lookup: Percent Effect of COCCC(=O)N1CCC2(COCc3cnc(N4CCOCC4)nc32)C1 (centres undefined)
Result :: 2.1

Query :: # lookup: Percent Effect of `Cc1ccc(C)c(OC2CCN(C(=O)c3ccc(O)nc3)CC2)c1`
Result :: 0.383

Query :: # lookup: Percent Effect of O=C(CCC1CCCC1)NCCn1nc(C2CCNC2)c2cccnc21 (centres undefined)
Result :: -0.699

Query :: # lookup: Percent Effect of O=c1[nH]c2c(c(=O)n1C1CCCCC1)CCC2NCCc1ccccc1 (centres undefined)
Result :: -3.35

Query :: # lookup: Percent Effect of `CCc1nc(COc2ccc(OCc3cnn(C)c3)cc2)no1`
Result :: 4.29

Query :: # lookup: Percent Effect of `Cc1noc2nc(C3CCN(CC4=CCCOC4)CC3)cc(C(F)F)c12`
Result :: -3.02

* * *

TEST_SYSTEM: Arginase-2, mitochondrial (Homo sapiens)
ASSAY_PROTOCOL: in vitro enzyme assay to detect the production of urea directly proportional to the activity of Arginase II
Assay type: functional
Design: scale not given: in the data most compounds retested in dose-response had high values
RUN_CONDITIONS: 33.3 µM
QUANTITY_MEASURED: Percent Effect (%)
# number only, unit % dropped from output

Solved entries:
>  <MOLECULE>
CN(CCc1ccccc1)C1CCCN(Cc2nccn2C)C1 (stereo unspecified)

>  <UNIT>
%

>  <Percent Effect>
0

$$$$
>  <MOLECULE>
CC(C)[C@H](NC(=O)NC1CCS(=O)(=O)C1)C(=O)Nc1cccnc1 (stereo partly specified)

>  <UNIT>
%

>  <Percent Effect>
-8.28

$$$$
>  <MOLECULE>
COc1cccc(N2CCN(CCC(=O)NC3CCCC3)CC2)c1

>  <UNIT>
%

>  <Percent Effect>
-22.5

$$$$
>  <MOLECULE>
CN1CCN(Cc2nc3ccccc3[nH]2)[C@H]2CS(=O)(=O)C[C@H]21

>  <UNIT>
%

>  <Percent Effect>
-1.24

$$$$
>  <MOLECULE>
O=C(NCCc1cccc(O)c1)NC1CCN(c2ccccc2)C1=O (stereo unspecified)

>  <UNIT>
%

>  <Percent Effect>
1.04

$$$$

Okay, next one:
Query :: # lookup: Percent Effect of `CN(C)C(=O)N1CCN(CCn2nc3ccccn3c2=O)CC1`
Result :: 0

Reference source: ChEMBL document CHEMBL3988442
